EXPERIMENTAL_TARGET: RELARELA (p65 homodimer) (Homo sapiens, UniProt Q04206 1-307)
Sequence (Q04206 1-307): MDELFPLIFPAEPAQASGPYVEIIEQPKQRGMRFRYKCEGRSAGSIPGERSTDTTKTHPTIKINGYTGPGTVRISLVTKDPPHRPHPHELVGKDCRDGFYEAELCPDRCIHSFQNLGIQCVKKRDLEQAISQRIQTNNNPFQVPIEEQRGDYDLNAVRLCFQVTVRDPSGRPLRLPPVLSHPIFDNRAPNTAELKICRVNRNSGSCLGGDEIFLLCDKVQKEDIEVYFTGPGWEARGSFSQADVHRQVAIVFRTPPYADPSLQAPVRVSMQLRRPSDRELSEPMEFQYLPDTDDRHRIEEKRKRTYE
ASSAY_EXPLANATION: protein binding microarray; high values mean tight binding
ASSAY_CONDITIONS: dsDNA, one strand shown
Readings of binding signal for the listed sequences
Return type: number; implicit unit z-score.

Example entries and their recorded answers appear below.
{"columns": ["SEQUENCE_RECORD", "RESULT_NUMBER"],
 "data": [
  ["GGGTTGGTCCT", -0.152],
  ["AGAGATCCCCC", -0.101]
]}

For GAATAGACCCT the sequence record lists binding signal as -0.683

Record summary for AGAGTCATCCT : reported binding signal = -0.641

Short answer for GGATAGGTCCC : binding signal was -0.076

====

EXPERIMENTAL_TARGET: C-Rel subunit;p52 subunit (Homo sapiens;Homo sapiens, UniProt Q04864;Q00653 1-285;4-332)
Sequence 1: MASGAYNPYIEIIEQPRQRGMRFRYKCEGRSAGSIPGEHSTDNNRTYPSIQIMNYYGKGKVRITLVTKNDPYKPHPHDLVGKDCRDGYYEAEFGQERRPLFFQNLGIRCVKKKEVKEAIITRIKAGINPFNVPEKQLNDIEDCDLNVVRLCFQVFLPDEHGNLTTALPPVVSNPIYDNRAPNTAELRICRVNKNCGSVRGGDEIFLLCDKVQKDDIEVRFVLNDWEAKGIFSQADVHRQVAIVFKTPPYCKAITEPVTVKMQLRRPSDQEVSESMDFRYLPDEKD
Sequence 2: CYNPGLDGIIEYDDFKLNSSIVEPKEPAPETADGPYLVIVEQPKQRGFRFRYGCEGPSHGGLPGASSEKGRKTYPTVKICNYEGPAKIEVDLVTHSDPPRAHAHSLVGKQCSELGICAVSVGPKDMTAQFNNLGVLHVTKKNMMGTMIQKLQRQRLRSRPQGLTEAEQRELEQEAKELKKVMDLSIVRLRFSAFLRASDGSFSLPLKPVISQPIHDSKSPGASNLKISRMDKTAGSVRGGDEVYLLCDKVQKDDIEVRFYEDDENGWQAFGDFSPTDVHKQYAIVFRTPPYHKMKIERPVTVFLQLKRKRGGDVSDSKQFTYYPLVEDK
ASSAY_EXPLANATION: protein binding microarray; high values mean tight binding
ASSAY_CONDITIONS: dsDNA, one strand shown
The threshold is inclusive: binding signal of exactly -0.04 z-score counts as met; values below receive not met.

{"columns": ["SEQUENCE_RECORD", "EXPERIMENTAL_TARGET", "CLASS_NAME"],
 "data": [
  ["GGATATCTCCC", "C-Rel subunit;p52 subunit (Homo sapiens;Homo sapiens, UniProt Q04864;Q00653 1-285;4-332)", "met"],
  ["CAGTAAATCCT", "C-Rel subunit;p52 subunit (Homo sapiens;Homo sapiens, UniProt Q04864;Q00653 1-285;4-332)", "not met"],
  ["GGATTTCTCCT", "C-Rel subunit;p52 subunit (Homo sapiens;Homo sapiens, UniProt Q04864;Q00653 1-285;4-332)", "not met"],
  ["CAAATAGCCCC", "C-Rel subunit;p52 subunit (Homo sapiens;Homo sapiens, UniProt Q04864;Q00653 1-285;4-332)", "met"],
  ["GGAGAACCCCC", "C-Rel subunit;p52 subunit (Homo sapiens;Homo sapiens, UniProt Q04864;Q00653 1-285;4-332)", "met"],
  ["CGGGTTACCCT", "C-Rel subunit;p52 subunit (Homo sapiens;Homo sapiens, UniProt Q04864;Q00653 1-285;4-332)", "met"]
]}

[ask] API: above_or_equal(metric=binding signal, cutoff=-0.04 z-score) for item GGAAATTTCCT
[reply] met

[ask] binding signal >= -0.04 z-score for CAGAGTATCCT ?
[reply] not met

[ask] Identify whether the reported binding signal of the following sequence is -0.04 z-score or greater: AAGAGATCCCT
[reply] not met

[ask] State whether the measured binding signal reaches -0.04 z-score, counting equality as reaching it, for GAGTTGTTCCC
[reply] not met

[ask] Record GAATGAGCCCT ; criterion: binding signal no lower than -0.04 z-score. Met?
[reply] not met

====

Entries and their measured binding signal follow.
EXPERIMENTAL_TARGET: C-Rel subunit;p50 subunit (Homo sapiens;Homo sapiens, UniProt Q04864;P19838 1-285;7-356)
Sequence (P19838 7-356, one chain of several): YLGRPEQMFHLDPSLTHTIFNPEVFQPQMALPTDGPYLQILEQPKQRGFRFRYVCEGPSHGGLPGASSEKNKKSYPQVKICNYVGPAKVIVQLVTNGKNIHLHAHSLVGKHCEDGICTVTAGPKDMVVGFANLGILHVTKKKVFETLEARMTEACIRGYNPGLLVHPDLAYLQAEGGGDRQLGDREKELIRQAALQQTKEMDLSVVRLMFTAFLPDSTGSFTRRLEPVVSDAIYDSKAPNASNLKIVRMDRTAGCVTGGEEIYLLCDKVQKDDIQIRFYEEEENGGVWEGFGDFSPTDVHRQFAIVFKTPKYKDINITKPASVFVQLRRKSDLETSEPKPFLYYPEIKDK
ASSAY_EXPLANATION: protein binding microarray; high values mean tight binding
ASSAY_CONDITIONS: dsDNA, one strand shown
Field: numeric (z-score). Do not append units.

{"columns": ["SEQUENCE_RECORD", "binding signal (z-score)"],
 "data": [
  ["AAGTGCTCCCT", -0.836],
  ["GGGAAAGCCCC", 2.45],
  ["GGATATGCCCT", -0.384],
  ["GGAGTCCTCCC", -0.207],
  ["GAGAGGTCCCT", 0.182]
]}

binding signal reading for GAAGGCTCCCT : -1.02

Summary for this sequence, CAATAAGTCCT : binding signal is -0.578

Entry under test: AAATGAGTCCT . Its binding signal was -1.08

Please fill in: binding signal reported for GGAGTTCCCCT = 2.61

Noted for AAGTTGTTCCT : its binding signal reads -0.889

====

EXPERIMENTAL_TARGET: RELB subunit;p52 subunit (Homo sapiens;Homo sapiens, UniProt Q01201;Q00653 120-401;4-332)
Sequence 1: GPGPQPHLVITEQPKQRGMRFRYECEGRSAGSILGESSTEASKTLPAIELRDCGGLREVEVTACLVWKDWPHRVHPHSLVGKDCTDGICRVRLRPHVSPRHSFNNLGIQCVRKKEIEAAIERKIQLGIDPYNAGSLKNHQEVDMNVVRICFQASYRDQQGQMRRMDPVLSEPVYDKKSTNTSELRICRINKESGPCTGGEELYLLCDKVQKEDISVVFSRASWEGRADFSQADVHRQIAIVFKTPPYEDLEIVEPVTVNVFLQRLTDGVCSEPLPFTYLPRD
Sequence 2: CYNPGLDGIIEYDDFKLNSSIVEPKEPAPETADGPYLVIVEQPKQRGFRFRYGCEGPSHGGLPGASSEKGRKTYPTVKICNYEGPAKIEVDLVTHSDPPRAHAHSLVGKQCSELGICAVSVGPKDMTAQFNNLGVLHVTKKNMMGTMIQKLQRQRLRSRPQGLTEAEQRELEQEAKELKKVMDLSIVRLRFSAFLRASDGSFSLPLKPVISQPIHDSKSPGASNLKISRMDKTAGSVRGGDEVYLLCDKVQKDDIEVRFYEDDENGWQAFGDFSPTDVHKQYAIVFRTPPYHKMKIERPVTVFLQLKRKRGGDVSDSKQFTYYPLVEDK
ASSAY_EXPLANATION: protein binding microarray; high values mean tight binding
ASSAY_CONDITIONS: dsDNA, one strand shown
MEASUREMENT_KIND: binding signal
State the result as a value with its unit after it.

Use these answered entries as a reference point.
{"columns": ["SEQUENCE_RECORD", "binding signal"],
 "data": [
  ["CGATACCTCCC", "-0.506 z-score"],
  ["GGATTCATCCT", "-0.967 z-score"],
  ["AGGTTGCTCCC", "-0.67 z-score"]
]}

Reported binding signal for CGGAGAGTCCT was -0.743 z-score

The recorded binding signal for GAAATGACCCT is -0.38 z-score

Entry under test: GAAGGCGTCCC . Its binding signal was 0.216 z-score

Lab note: AGGAATGCCCT gave binding signal of -0.494 z-score

Consider AGAGAACTCCT . Its measured binding signal is -0.943 z-score

====

EXPERIMENTAL_TARGET: RELB subunit;p50 subunit (Homo sapiens;Homo sapiens, UniProt Q01201;P19838 120-401;7-356)
ASSAY_EXPLANATION: protein binding microarray; high values mean tight binding
ASSAY_CONDITIONS: dsDNA, one strand shown
# fulfilled = binding signal below -0.6 z-score (exclusive); not fulfilled = binding signal at/above -0.6 z-score

Use these answered entries as a reference point.
{"columns": ["SEQUENCE_RECORD", "EXPERIMENTAL_TARGET", "CLASS_NAME"],
 "data": [
  ["AAGGACGCCCT", "RELB subunit;p50 subunit (Homo sapiens;Homo sapiens, UniProt Q01201;P19838 120-401;7-356)", "fulfilled"],
  ["GAGTGTACCCC", "RELB subunit;p50 subunit (Homo sapiens;Homo sapiens, UniProt Q01201;P19838 120-401;7-356)", "not fulfilled"],
  ["CGAGATACCCC", "RELB subunit;p50 subunit (Homo sapiens;Homo sapiens, UniProt Q01201;P19838 120-401;7-356)", "not fulfilled"],
  ["GAATATTCCCT", "RELB subunit;p50 subunit (Homo sapiens;Homo sapiens, UniProt Q01201;P19838 120-401;7-356)", "not fulfilled"],
  ["AAAAGTCTCCC", "RELB subunit;p50 subunit (Homo sapiens;Homo sapiens, UniProt Q01201;P19838 120-401;7-356)", "not fulfilled"],
  ["GGAGAAGTCCT", "RELB subunit;p50 subunit (Homo sapiens;Homo sapiens, UniProt Q01201;P19838 120-401;7-356)", "fulfilled"],
  ["GAGTTCTTCCT", "RELB subunit;p50 subunit (Homo sapiens;Homo sapiens, UniProt Q01201;P19838 120-401;7-356)", "fulfilled"],
  ["AAAATCGCCCT", "RELB subunit;p50 subunit (Homo sapiens;Homo sapiens, UniProt Q01201;P19838 120-401;7-356)", "not fulfilled"]
]}

[ask] Please determine if GGATAATCCCC is below -0.6 z-score in terms of binding signal.
[reply] not fulfilled

[ask] Please indicate whether the reported binding signal of GAGTGGATCCT is strictly below -0.6 z-score.
[reply] fulfilled

[ask] Does this sequence meet the criterion binding signal < -0.6 z-score? GAAATAGTCCC
[reply] not fulfilled

[ask] Please determine if AAGGGACCCCC is below -0.6 z-score in terms of binding signal.
[reply] not fulfilled

[ask] Identify whether the sequence CAGAACCTCCT records binding signal below -0.6 z-score.
[reply] fulfilled

[ask] Regarding GAGTTATCCCT , kindly confirm whether its binding signal is beneath -0.6 z-score.
[reply] not fulfilled

[ask] Criterion: binding signal strictly below -0.6 z-score. Is it met by GAAGTACCCCC ?
[reply] not fulfilled

[ask] Is -0.6 z-score strictly greater than the sequence's reported binding signal? sequence: GGATATCTCCC
[reply] not fulfilled

[ask] I wonder whether GAAGTTTCCCC has binding signal below -0.6 z-score. Can you tell?
[reply] not fulfilled

[ask] Does the reported binding signal of the following sequence sit strictly below -0.6 z-score? CAATTCCTCCT
[reply] fulfilled

[ask] Here's an entry: AGAAAGTCCCC . Is its binding signal below -0.6 z-score?
[reply] not fulfilled
